# TARGET OR TEST SYSTEM: glutathione-S-transferase (GST) tagged LXRbeta LBD (ligand binding domain) (Homo sapiens)
# Construct: purchased Invitrogen pv4658.pps
# Sequence (P55055 222-460 limits assumed): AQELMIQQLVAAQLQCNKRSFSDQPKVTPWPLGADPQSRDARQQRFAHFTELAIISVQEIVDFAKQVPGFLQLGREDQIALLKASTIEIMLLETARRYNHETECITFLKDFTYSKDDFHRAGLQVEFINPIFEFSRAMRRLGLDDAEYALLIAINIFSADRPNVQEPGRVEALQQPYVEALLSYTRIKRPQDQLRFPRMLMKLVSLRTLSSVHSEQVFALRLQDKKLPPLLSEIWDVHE
# PROCEDURE SUMMARY: LanthaScreen TR-FRET Liver X Receptor Coactivator Assay, LXR beta
# Format: biochemical
# PROTOCOL CONDITIONS: potency (Inflection Point) of compound-induced co-activator recruitment, TR-FRET; read-out: LXR beta IP
pEC50: −log10 of the molar value.
OUTCOME MEASURE: pEC50

| COMPOUND | NUMERIC RESULT |
| --- | --- |
| CN(C)C(=O)c1ccc(CCCC2CC3(CCN(C(=O)C(O)(c4cccc(OC(F)(F)F)c4)C(F)(F)F)CC3)C2)cc1Cl (single isomer, unassigned) [Example 16-4] | 7.24 |
| CN(C)C(=O)c1ccc(N(C)CCC2CC3(CCN(C(=O)C(C)(C)c4ccccc4)CC3)C2)nc1Cl [Example 12-1] | 6.37 |
| CN(C)C(=O)c1ccc(CCCCCC2CCN(C(=O)C(O)(c3ccccc3)C(F)(F)F)CC2)cc1Cl (single isomer, unassigned) [Example 15-9] | 6.62 |
| CN(Cc1ccc(C(=O)N(C)C)c(Cl)c1)CC1CC12CCN(C(=O)C(C)(C)c1ccccc1)CC2 (stereo not shown) [Example 14-1] | 5.90 |
| CN(C)C(=O)c1ccc(CCCC2CC3(CCN(C(=O)C(C)(C)c4ccccc4)CC3)C2)cc1Cl [Example 16-3] | 7.25 |
| CN(C)C(=O)c1ccc(NCCCCC2CCN(C(=O)C(O)(c3ccccc3)C(F)(F)F)CC2)cc1Cl (single isomer, unassigned) [Example 1-15] | 8.52 |
| CNC(=O)c1ccc(NCCCCC2CCN(C(=O)C3(c4ccccc4)CCCC3)CC2)cc1Cl [Example 1-4] | 6.74 |
| CNC(=O)c1ccc(CCCCCC2CCN(C(=O)C(O)(c3ccccc3)C(F)(F)F)CC2)cc1Cl (single isomer, unassigned) [Example 15-7] | 8.22 |
| COc1cccc(C(O)(C(=O)N2CCC(CCCCCc3ccc(C(=O)N(C)C)c(Cl)c3)CC2)C(F)(F)F)c1 (single isomer, unassigned) [Example 15-5] | 7.80 |
| CN(C)C(=O)c1ccc(NCCCCC2CCN(C(=O)C(O)(c3ccccc3)C(F)(F)F)CC2)nc1Cl (stereo not shown) [Example 2-1] | 7.54 |
| CN(C)C(=O)c1ccc(NCCC2CCN(C(=O)OCc3ccccc3)CC2)cc1Cl [Example 1-13] | 6.98 |
| CNC(=O)c1ccc(NCCCCC2CCN(C(=O)C(O)(c3cccc(Cl)c3)C(F)(F)F)CC2)cc1Cl (single isomer, unassigned) [Example 1-5] | 8.10 |
| CNC(=O)c1ccc(NCCCCC2CCN(C(=O)C(O)(c3cccc(OC)c3)C(F)(F)F)CC2)cc1F (single isomer, unassigned) [Example 1-6] | 6.99 |

====

# TARGET OR TEST SYSTEM: glutathione-S-transferase (GST) tagged LXRalpha LBD (ligand binding domain) (Homo sapiens)
# Construct: purchased Invitrogen pv4655
# Sequence (Q13133 209-447 limits assumed): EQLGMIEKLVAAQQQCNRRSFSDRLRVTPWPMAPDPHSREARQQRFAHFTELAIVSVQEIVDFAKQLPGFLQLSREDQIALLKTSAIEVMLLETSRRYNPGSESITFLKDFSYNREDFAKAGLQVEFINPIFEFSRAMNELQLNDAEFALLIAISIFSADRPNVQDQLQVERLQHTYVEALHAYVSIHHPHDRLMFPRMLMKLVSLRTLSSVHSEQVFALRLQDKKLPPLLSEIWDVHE
# PROCEDURE SUMMARY: LanthaScreen TR-FRET Liver X Receptor Coactivator Assay, LXR alpha
# Assay type: biochemical
# PROTOCOL CONDITIONS: potency (Inflection Point) of compound-induced co-activator recruitment, TR-FRET; read-out: LXR alpha IP
Here the recorded log10(EC50) is given for each entry.
OUTCOME MEASURE: log10(EC50) (log10 of the value in nM)

| COMPOUND | OUTCOME MEASURE | NUMERIC RESULT |
| --- | --- | --- |
| COc1cccc([C@@](O)(C(=O)N2CCC(CCC[C@H](C)Nc3ccc(C(=O)N(C)C)c(Cl)c3)CC2)C(F)(F)F)c1 (single isomer, unassigned) | log10(EC50) | 2.87 |
| CN(C)C(=O)c1ccc(NCCC[C@@H]2CC23CCN(C(=O)[C@](O)(c2ccccc2)C(F)(F)F)CC3)cc1Cl (single isomer, unassigned) | log10(EC50) | 2.92 |
| CN(C)C(=O)c1ccc(N(C)CCCC2CCN(C(=O)C(O)(c3ccccc3)C(F)(F)F)CC2)cc1Cl (single isomer, unassigned) | log10(EC50) | 3.06 |
| CN(Cc1ccc(C(=O)N(C)C)c(Cl)c1)CC1CC12CCN(C(=O)C(C)(C)c1ccccc1)CC2 (stereo not drawn) | log10(EC50) | 4.19 |
| CNC(=O)c1ccc(CCCCCC2CCN(C(=O)C(O)(c3cccc(OC)c3)C(F)(F)F)CC2)cc1Cl (single isomer, unassigned) | log10(EC50) | 2.58 |
| CN(C)C(=O)c1c(F)cc(NCCC[C@H]2CC23CCN(C(=O)[C@](O)(c2ccccc2)C(F)(F)F)CC3)cc1F (single isomer, unassigned) | log10(EC50) | 3.33 |
